These data points were gathered from patent US10266497B2.

Molecular target: MAGL (Homo sapiens)
Sequence (Q99685 1-303): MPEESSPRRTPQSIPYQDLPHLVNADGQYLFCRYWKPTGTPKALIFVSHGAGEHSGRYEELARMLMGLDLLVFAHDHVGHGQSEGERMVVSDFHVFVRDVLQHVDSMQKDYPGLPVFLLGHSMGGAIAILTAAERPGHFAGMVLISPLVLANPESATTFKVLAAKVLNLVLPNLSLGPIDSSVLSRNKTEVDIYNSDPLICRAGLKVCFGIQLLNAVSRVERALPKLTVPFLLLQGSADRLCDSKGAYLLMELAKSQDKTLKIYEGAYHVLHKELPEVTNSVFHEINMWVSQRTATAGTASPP
Test: In vitro competitive activity-based protein profiling, MAGL, human
Settings: read-out: MAGL % inh. 1 μM (human)
value.kind: inhibition at 1 µM

Give inhibition at 1 µM for each listed item.
1. CC(C)(O)COc1cccc(CN2CCN(C(=O)n3ccc(C(=O)O)n3)CC2)c1Cl [Example 213]
2. O=C(O)c1ccn(C(=O)N2CCN(Cc3ccc(C(F)(F)F)cc3N3CCC(F)(F)CC3)CC2)n1 [Example 108]
3. O=C(O)c1ccn(C(=O)N2CCN(Cc3ccc(C(F)(F)F)cc3N3CC[C@@H](O)C3)CC2)n1 [Example 333]
4. O=C(O)c1ccn(C(=O)N2CCC3(CCN(Cc4c(Cl)cccc4C(F)(F)F)C3)CC2)n1 [Example 74]
5. NC(=O)c1ccn(C(=O)N2CCN(Cc3ccc(N4CCOCC4)cc3Cl)CC2)n1 [Example 165]

Result:
1. > 75%
2. > 75%
3. > 75%
4. > 75%
5. > 75%

For every item in the list below, what is its measured inhibition at 1 µM?
1. O=C(O)c1ccn(C(=O)N2CCN(Cc3ccc(Cl)cc3N3CC4COCC4C3)CC2)n1 (stereo not shown) [Example 111]
2. O=C(O)c1ccn(C(=O)N2C[C@H]3C[C@H](Oc4cccc(C5CCCC5)c4)C[C@H]3C2)n1 [Example 232]
3. O=C(O)c1ccn(C(=O)N2CCN(Cc3ccc(OC(F)(F)F)cc3-c3nnco3)CC2)n1 [Example 68]
4. O=C(O)c1nn(C(=O)N2CC3CN(Cc4cccc(Oc5ccc(Cl)cc5)c4)CC3C2)cc1Cl (stereo not shown) [Example 137]

Result:
["> 75%", "> 75%", "> 75%", "> 75%"]

Respectfully, I request inhibition at 1 µM for each entry included below.
1. NC(=O)c1ccn(C(=O)N2CCN(Cc3ccc(C(F)(F)F)cc3N3CCCC3)CC2)n1 [Example 173]
2. O=C(O)c1ccn(C(=O)N2CCC3(CCN(Cc4ccc(Cl)c(N5CCOCC5)c4)C3)CC2)n1 [Example 372]
3. O=C(O)c1ccn(C(=O)N2CCN(Cc3cccc(Oc4cnccn4)c3)CC2)n1 [Example 60]
4. O=C(O)c1ccn(C(=O)N2CCC3(CCN(Cc4ccc(-c5ccccc5)cc4C(F)(F)F)C3)CC2)n1 [Example 170]

Result:
> 75%
0 to 25%
25 to 50%
> 75%

Dear colleague, could you please provide inhibition at 1 µM for the molecules listed below?
1. NC(=O)c1ccn(C(=O)N2CC3CN(Cc4ccc(Cl)cc4)CC3C2)n1 (stereo not shown) [Example 203]
2. O=C(O)c1ccn(C(=O)N2CCC3(CCN(Cc4cc(F)cc(Cl)c4)C3)CC2)n1 [Example 70]
3. O=C(O)c1ccn(C(=O)N2CCN(Cc3ccc(C(F)(F)F)c(-c4nccs4)c3)CC2)n1 [Example 8]
4. O=C(O)c1ccn(C(=O)N2CCC3(CCN(Cc4ccc(C(F)(F)F)c(Cl)c4)C3)CC2)n1 [Example 78]
5. O=C(O)c1ccn(C(=O)N2CCN(Cc3cccc(Oc4cc(C(F)(F)F)ccn4)c3)CC2)n1 [Example 57]

Result:
1: > 75%; 2: 25 to 50%; 3: > 75%; 4: > 75%; 5: > 75%

Hello, I would appreciate it if you could give inhibition at 1 µM for each entry below.
1. CN(Cc1cc(C(F)(F)F)ccc1N1CCCC1)C1(C)CCN(C(=O)n2ccc(C(=O)O)n2)CC1 [Example 384]
2. O=C(O)c1ccn(C(=O)N2CCN(Cc3cc(F)cc(Oc4cccc(Cl)c4)c3)CC2)n1 [Example 321]
3. O=C(O)c1ccn(C(=O)N2C[C@H]3C[C@@H](OCc4cccc(C(F)(F)F)c4)C[C@H]3C2)n1 [Example 255]
4. CC(C)c1ccccc1O[C@H]1C[C@@H]2CN(C(=O)n3ccc(C(=O)O)n3)C[C@@H]2C1 [Example 221]

Result:
["> 75%", "> 75%", "> 75%", "> 75%"]

State recorded inhibition at 1 µM for all listed molecules.
1. O=C(O)c1ccn(C(=O)N2CCC3(CCCN3Cc3ccc(C(F)(F)F)cc3N3CCN4CCC[C@H]4C3)CC2)n1 [Example 418]
2. NC(=O)c1ccn(C(=O)N2CC3CN(Cc4ccc(C(F)(F)F)cc4)CC3C2)n1 (stereo not shown) [Example 182]
3. C[C@@H]1CN(Cc2ccc(-c3ccccc3)cc2F)CCN1C(=O)n1ccc(C(=O)O)n1 [Example 253]
4. O=C(O)c1ccn(C(=O)N2C[C@H]3C[C@H](Oc4cccc(N5CCCC5)c4)C[C@H]3C2)n1 [Example 234]
5. O=C(O)c1nn(C(=O)N2CCC3(CC2)CN(Cc2cc(Cl)ccc2C(F)(F)F)C3)cc1Cl [Example 134]
6. NC(=O)c1ccn(C(=O)N2CCN(Cc3cccc(C(F)(F)F)c3N3CCOCC3)CC2)n1 [Example 199]
7. C[C@@H]1CN(Cc2cc(F)cc(Oc3ccc(Cl)cc3)c2)CCN1C(=O)n1ccc(C(=O)O)n1 [Example 348]

Result:
25 to 50%
> 75%
> 75%
> 75%
> 75%
> 75%
> 75%

Report inhibition at 1 µM for every entry below.
1. O=C(O)c1ccn(C(=O)N2CCC3(CCN(Cc4ccc(Cl)c(N5CCCC5)c4)C3)CC2)n1 [Example 343]
2. O=C(O)c1ccn(C(=O)N2C[C@H]3C[C@H](OCc4cc(F)cc(Cl)c4)C[C@H]3C2)n1 [Example 53]

Result:
1: 25 to 50%; 2: > 75%

---

target: UniProtKB O08914; test: In vitro competitive activity-based protein profiling, FAAH, mouse; conditions: read-out: FAAH % inh. 1 μM (mouse)
Sequence (O08914 whole entry): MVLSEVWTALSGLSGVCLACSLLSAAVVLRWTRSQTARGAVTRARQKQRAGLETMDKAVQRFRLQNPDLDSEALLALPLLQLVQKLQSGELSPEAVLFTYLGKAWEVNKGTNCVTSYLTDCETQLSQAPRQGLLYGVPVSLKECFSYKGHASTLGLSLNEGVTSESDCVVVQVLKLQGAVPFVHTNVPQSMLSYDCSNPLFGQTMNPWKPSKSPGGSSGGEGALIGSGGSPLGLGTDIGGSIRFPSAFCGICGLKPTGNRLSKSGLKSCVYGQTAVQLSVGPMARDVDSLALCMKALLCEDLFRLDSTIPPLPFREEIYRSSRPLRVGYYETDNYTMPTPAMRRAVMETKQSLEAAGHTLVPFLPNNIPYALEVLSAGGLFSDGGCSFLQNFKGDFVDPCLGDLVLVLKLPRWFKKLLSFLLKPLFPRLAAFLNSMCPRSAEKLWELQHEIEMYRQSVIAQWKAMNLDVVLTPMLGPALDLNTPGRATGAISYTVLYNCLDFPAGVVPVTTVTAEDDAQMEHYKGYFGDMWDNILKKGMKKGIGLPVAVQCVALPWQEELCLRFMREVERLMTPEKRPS
value.kind: inhibition at 1 µM

NC(=O)c1ccn(C(=O)N2CCC3(CCN(Cc4cc(Cl)ccc4C(F)(F)F)C3)CC2)n1	> 75%
O=C(O)c1ccn(C(=O)N2CCN(Cc3cccc(Oc4ccccc4)c3)CC2)n1	25 to 50%
O=C(O)c1ccn(C(=O)N2CCN(Cc3cccc(Oc4ccccc4Cl)c3)CC2)n1	50 to 75%
O=C(O)c1ccn(C(=O)N2C[C@H]3C[C@@H](Oc4cccc(-c5ccccc5)c4)C[C@H]3C2)n1	25 to 50%
O=C(O)c1ccn(C(=O)N2CC3CN(Cc4cc(F)cc(Cl)c4)CC3C2)n1 (stereo not shown)	> 75%

# batch: return inhibition at 1 µM for each of the 7 compounds below
1. Cc1c(CN2CCN(C(=O)n3ccc(C(=O)O)n3)CC2)[nH]c2ccc(Cl)cc12
2. O=C(O)c1ccn(C(=O)N2CCC3(CCN(Cc4ccc(Oc5ccc(Cl)cc5)cc4)C3)CC2)n1
3. NC(=O)c1ccn(C(=O)N2CCC3(CCN(Cc4ccc(N5CCCC5)cc4C(F)(F)F)C3)CC2)n1
4. Cc1cn(C(=O)N2CCC3(CCN(Cc4cc(Cl)ccc4C(F)(F)F)C3)CC2)nc1C(=O)O
5. O=C(O)c1ccn(C(=O)N2C[C@H]3C[C@H](OCc4cccc(Oc5ccc(Cl)cc5)c4)C[C@H]3C2)n1
6. O=C(O)c1nn(C(=O)N2CC3CN(Cc4cc(N5CCCC5)cc(C(F)(F)F)c4)CC3C2)cc1Cl (stereo not shown)
7. CN(Cc1cc(Cl)ccc1C(F)(F)F)CC1CCN(C(=O)n2cc(Cl)c(C(=O)O)n2)CC1

Result:
0 to 25%
50 to 75%
> 75%
50 to 75%
> 75%
25 to 50%
> 75%

// for each compound below, give its inhibition at 1 µM
1. O=C(O)c1nn(C(=O)N2CC3CN(Cc4ccc(-c5nnn[nH]5)cc4C(F)(F)F)CC3C2)cc1Cl (stereo not shown)
2. O=C(O)c1ccn(C(=O)N2CCC3(CCN(Cc4cccc(-c5ccccc5)c4)C3)CC2)n1
3. O=C(O)c1ccn(C(=O)N2CCC3(CCCN3Cc3cc4ccc(C(F)(F)F)cc4s3)CC2)n1
4. O=C(O)c1ccn(C(=O)N2CCN(Cc3cccc(C(F)(F)F)c3N3CCOCC3)CC2)n1
5. O=C(O)c1ccn(C(=O)N2CC3CN(Cc4cc(Cl)cc(C(F)(F)F)c4)CC3C2)n1 (stereo not shown)
6. O=C(O)c1ccn(C(=O)N2CCN(Cc3ccc(C(F)(F)F)cc3N3CCN4CCC[C@H]4C3)CC2)n1
7. O=C(O)c1ccn(C(=O)N2CCN(Cc3ccc(C(F)(F)F)cc3N3CCCC3)CC2)n1
8. O=C(O)c1nn(C(=O)N2CC3CN(Cc4ccc(-c5cnc6ccccn56)cc4C(F)(F)F)CC3C2)cc1Cl (stereo not shown)

Result:
1. 0 to 25%
2. 50 to 75%
3. 0 to 25%
4. 0 to 25%
5. > 75%
6. 0 to 25%
7. 0 to 25%
8. > 75%
